# Measured target: Human Secreted Phospholipase A2 (Homo sapiens)
# Sequence (P14555 21-144): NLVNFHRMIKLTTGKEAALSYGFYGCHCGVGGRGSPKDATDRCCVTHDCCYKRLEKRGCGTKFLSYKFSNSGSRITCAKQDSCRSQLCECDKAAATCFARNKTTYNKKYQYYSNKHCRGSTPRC
# Protocol notes: chromogenic assay for inhibitors of recombinant human secreted phospholipase A2
# Assay type: biochemical
The entries below are paired with their reported IC50.
Reply with just the number (in nM).

Cc1c(C(=O)C(N)=O)c2c(OCC(=O)O)cccc2n1Cc1ccc(F)cc1 [Example 7] ... 6

Look up IC50 with Human Secreted Phospholipase A2 (Homo sapiens) for this compound: Cc1c(C(=O)C(N)=O)c2c(OCC(=O)O)cccc2n1Cc1cccc(-c2ccccc2)c1 [Example 4] 9.69

Notebook entry, Human Secreted Phospholipase A2 (Homo sapiens) assay: IC50 of Cc1c(C(=O)C(N)=O)c2c(OCC(=O)O)cccc2n1Cc1ccccc1 [Example 1] = ? 10.7

// fetch Human Secreted Phospholipase A2 (Homo sapiens) IC50 for CCc1c(C(=O)C(N)=O)c2c(OCC(=O)O)cccc2n1Cc1cccc(Cl)c1 [Example 10] 6.67

Hi! What's the reported IC50 for Cc1c(C(=O)C(N)=O)c2c(OCC(=O)O)cccc2n1Cc1cccc2ccccc12 [Example 8] on Human Secreted Phospholipase A2 (Homo sapiens)? 32.8
